Below: a set of entries, each annotated with reported kDPPH.
experiment: Reducing activity against 2,2-diphenyl-1-picrylhydrazyl; type: ADME

1) O=C1c2c(O)cccc2C(C(=O)/C=C/c2ccccc2)c2cccc(O)c21 | > 100 M⁻¹ s⁻¹

## Input Field request: kDPPH | item: N#Cc1ccc(C=C2c3cccc(O)c3C(=O)c3c(O)cccc32)cc1
## Output < 1 M⁻¹ s⁻¹

## Input What measured kDPPH goes with COC(=O)c1ccc(C=C2c3cccc(O)c3C(=O)c3c(O)cccc32)cc1 ?
## Output < 1 M⁻¹ s⁻¹

###

test: Deoxyribose-damaging property as a measure of hydroxyl-radical formation (uM test compound)
quantity: Deoxyribose degradation (uM of MDA mM-1)

Consider the following illustrative entries.
1. O=C(O)c1ccc(C=C2c3cccc(O)c3C(=O)c3c(O)cccc32)cc1 | < 0.15
2. O=C1c2c(O)cccc2C(C(=O)Cc2ccccc2)c2cccc(O)c21 | < 0.2
3. COc1ccc(C=C2c3cccc(O)c3C(=O)c3c(O)cccc32)cc1OC | < 0.15
4. O=C1c2c(O)cccc2C(=CCCc2ccccc2)c2cccc(O)c21 | < 0.15
5. O=C1c2c(O)cccc2C(C(=O)CCc2ccccc2)c2cccc(O)c21 | < 0.2

## Input // lookup Deoxyribose degradation (uM of MDA mM-1) for CC(C)(C)c1cc(CC(=O)C2c3cccc(O)c3C(=O)c3c(O)cccc32)cc(C(C)(C)C)c1O
## Output < 0.2

## Input Using the record for COc1cc(C=C2c3cccc(O)c3C(=O)c3c(O)cccc32)cc(OC)c1OC , report its Deoxyribose degradation (uM of MDA mM-1).
## Output < 0.15

## Input Given the compound COc1ccc(CCC(=O)C2c3cccc(O)c3C(=O)c3c(O)cccc32)cc1 , what is its reported Deoxyribose degradation (uM of MDA mM-1)?
## Output 1.4

## Input Query (compound): COc1ccc(CCC=C2c3cccc(O)c3C(=O)c3c(O)cccc32)cc1 ; field requested: Deoxyribose degradation (uM of MDA mM-1)
## Output < 0.15

## Input Need Deoxyribose degradation (uM of MDA mM-1), item O=C1c2c(O)cccc2C(C(=O)Cc2ccc([N+](=O)[O-])cc2)c2cccc(O)c21
## Output < 0.2

Cited source: ChEMBL document CHEMBL1126969
